# System: HepaRG
# Experiment: LDH release cytotoxicity, % of total lysis control; higher = more cytotoxic
# Reported Conditions: 0.031623 µM; 48 h
Recorded Endpoint: LDH release cytotoxicity (%)

INSERT INTO results (compound, recorded_endpoint, result_value) VALUES
  ('CC1(C)C(C=C(Cl)Cl)C1C(=O)OC(C#N)c1ccc(F)c(Oc2ccccc2)c1 (centres undefined)', 'LDH release cytotoxicity', 0.499),
  ('c1ccc2cc3ccccc3cc2c1', 'LDH release cytotoxicity', -2.31),
  ('CC(COc1ccc(Oc2ccccc2)cc1)Oc1ccccn1 (centres undefined)', 'LDH release cytotoxicity', -1.46),
  ('Clc1cccc(C(Cl)(Cl)Cl)n1', 'LDH release cytotoxicity', -0.0337),
  ('Nc1c(Cl)c(Cl)nc(C(=O)O)c1Cl', 'LDH release cytotoxicity', -0.672),
  ('CCc1cccc(CC)c1N(COC)C(=O)CCl', 'LDH release cytotoxicity', -1.16),
  ('CCC(=C(CC)c1ccc(O)cc1)c1ccc(O)cc1', 'LDH release cytotoxicity', -1.08),
  ('C1=Cc2cccc3cccc1c23', 'LDH release cytotoxicity', -0.662),
  ('NC(Cc1cc(I)c(Oc2ccc(O)c(I)c2)c(I)c1)C(=O)O (centres undefined)', 'LDH release cytotoxicity', -1.22),
  ('ClC1=C(Cl)C(Cl)(Cl)C(Cl)=C1Cl', 'LDH release cytotoxicity', -1.11),
  ('CC(=O)OCC=C(C)CCC=C(C)C [Geranyl acetate]', 'LDH release cytotoxicity', -1.3),
  ('CNC(=O)Oc1cccc2c1OC(C)(C)O2', 'LDH release cytotoxicity', -1.26),
  ('CCCCCCCCCC', 'LDH release cytotoxicity', -0.647),
  ('CN(C)C(=O)Nc1ccc(Cl)cc1', 'LDH release cytotoxicity', -1.01);
